Test system: OVCAR-8
method-description: NCI tumour cell line growth inhibition, 48 h
Calls of active or inactive are those of the source. No stated cut-off is given here; in the data, active = GI50 up to about 1.1 µM and inactive = higher.
GI50: recorded values

Worked cases, answers included:
>  <compound>
COC12COC(=O)C1C(c1ccc3c(c1)OCO3)c1cc3c(cc1O2)OCO3 (stereo not given)

>  <target-system>
OVCAR-8

>  <GI50>
26.1 µM (inactive)

$$$$
>  <compound>
NC1=NCC(CN2CCOCC2)O1 (stereo not given)

>  <target-system>
OVCAR-8

>  <GI50>
> 100 µM (inactive)

$$$$

# input // GI50 lookup, key: `CCCC(=O)C1=C(O)C(Cc2c(O)c(C)c(O)c(C(=O)CCC)c2O)=C(O)C(C)(C)C1=O`
# output > 50 µM (inactive)

# input // GI50 lookup, key: OCC1OC(NO)C(O)C(O)C1O (stereo not given)
# output > 100 µM (inactive)

# input // GI50 lookup, key: `CC(=O)O[C@@H]1[C@H]2[C@@H](OC(=O)c3ccccc3)[C@@H](C)C[C@]2(O)[C@H](OC(C)=O)[C@@]2(C)[C@@H]3C[C@@](C)(OC(C)=O)C[C@@H](OC(C)=O)[C@@]3(OC(C)=O)C[C@@]12C`
# output > 10 µM (inactive)
